These entries and their values trace back to patent US11667697.

target-of-assay: CPXV ortholog of D8 (cowpox virus)
assay-protocol: cell-based or functional assay
What PRNT Emax, CPXV MV+C' was measured for each of the following?
Answers are plain numbers, in %.

In the examples that follow, each entry is paired with its recorded PRNT Emax, CPXV MV+C'.
1) VACV-128 (antibody, V domains shown) VH: EVQLVQSGAEVKKPGATVKISCKVSGYTFTDYYMHWVQQAPGKGLKWMGLLDPLDGETIYSEKFQGKVTITADTSTDTAYMELSSLRSEDTAVYYCARELTGYLNYWGQGTLVTVSS VL: DIQMTQSPSSLSASVGDRVTITCRASPGICNYLAWYQHKPGKVPKLLIYAASTLQSGVPSRFTGVGSGTNFTLTINNLPPENVATYYCQKYNSAPHTFGQGTKVDIK    71
2) VACV-304 (antibody, V domains shown) VH: EVQLVESGGGLVQPGGSLRLSCVVSGFTFSNYWMSWVRQAPGKGLEWVANIKQDGSKKYYVDSVTGRFTISRDNAKNSLYLQMNSLRAEDTAVYYCATLNLELAVDAISEALKWGQGTLVTVSS VL: SYELTQPPSVSVSPGQTARITCSGDALPKQFAYWYQQKPGQAPVVMIYKDSERPSGIPERFSGSSSGTTVTLTISGVQAEDEADYYCQSVDNSGTYEVFGGGTQLTVL    79
3) VACV-136 (antibody, V domains shown) V domain 1: QVTLKESGPVLVNPTETLTLTCTVSGFSLSNARMRVSWIRQPPGKALEWLAHIFSNDEKSYSTSLKSRLTISKDTSKSQVVLTMTNMDPVDTASYYCARMRGEYNSYYFDSWGQGTLVTVS V domain 2: SYELTQPPSVSVSPGQTARITCSGDALPNQYAYWYQQKPGQAPVLVIYKDSERPSGIPERFSGSSSGTTVTLTISGVQAEDEADYYCQSADSSGTSVVFGGGTQVTV    75

Lab note: next binder to report on.
Q: Supply measured PRNT Emax, CPXV MV+C' of MPXV-27 (antibody, V domains shown) VH: QVQLQQWGAGLLKPSETLSLTCDVYGGSFSGYYWSWIRQPPGKGLEWIGEINHSGSTTYTPSLRSRVTISVDTSKNQFSLKLSSVTAADTAVYYCARVLSGWLPFPNYYYYMDVWGKGTTVT VL: DIQMTQSPSSLPASVGDRVTITCRASQDIRNNLGWYQQKPGKAPERLIYGTSNLQSGVPSRFSGSGSGTEFTLTISSLQPEDFATYYCLQHNSYPPTFGRGTKVEIK in your reply.
A: 75
